Cited source: PubChem BioAssay (NCI)

system: TK-10 renal; experiment: NCI tumour cell line growth inhibition, 48 h
Below: a set of entries, each annotated with reported TGI.

molecule: O=C1CC(c2ccco2)C2(C(=O)NC(=O)NC2=O)C(c2ccco2)C1 (stereo unspecified)
measured_metric: TGI
test_value: > 75 µM
--
molecule: C=CC1=CSNN1
measured_metric: TGI
test_value: > 100 µM
--
molecule: CCCCN(CC)c1nc(C)nc2c1c(C)c(C)n2-c1c(C)cc(C)cc1C
measured_metric: TGI
test_value: 31.1 µM

Query :: Would you kindly share the measured TGI for C[C@]12OC[C@H](c3ccccc3)N1C(=O)C1[C@H]2CC12SCCS2 (stereo partly specified) ?
Result :: > 100 µM

Query :: Would you kindly share the measured TGI for N#CC1=C(N)OC2=C(CSc3ccccc32)C1c1ccc(Br)cc1 (stereo unspecified) ?
Result :: 31.2 µM

Query :: Would you kindly share the measured TGI for COc1ccc(NC(=O)Nc2n[nH]c3ccccc23)cc1 ?
Result :: > 100 µM

----------
test system: LXFL 529 NSCLC; test: NCI tumour cell line growth inhibition, 48 h
measured_metric: TGI

Examples with answers:
molecule: Cc1c(Cl)cccc1NC(=O)C(=O)C1C(=O)CC(C)(C)CC1=O
system_tested: LXFL 529 NSCLC
TGI: > 100 µM
--
molecule: CCOC(=O)C(OCC1CC=CCC1)Sc1ccccc1 (stereo unspecified)
system_tested: LXFL 529 NSCLC
TGI: > 100 µM
--
molecule: FC(F)(F)c1nc(-c2ccccc2Cl)[nH]c1C(F)(F)F
system_tested: LXFL 529 NSCLC
TGI: 3.73 µM
--
molecule: O=C1O[C@@H](c2ccccc2)C[C@@H]1CN1CCOCC1
system_tested: LXFL 529 NSCLC
TGI: > 100 µM

Query :: Would you kindly share the measured TGI for Cc1ccccc1C(C#N)C(=O)C(=O)Nc1nc([N+](=O)[O-])cs1 (stereo unspecified) ?
Result :: > 100 µM

Query :: Would you kindly share the measured TGI for COc1cc2c(c3c1C=CCO3)C(=O)c1ccccc1C2=O ?
Result :: > 100 µM

Query :: Would you kindly share the measured TGI for C1COCCN1.C1COCCN1.N.N.[Cl-].[Pt+2] ?
Result :: > 100 µM

Query :: Would you kindly share the measured TGI for O=C1NC(c2ccc(O)cc2)C2CCC1C2 (stereo unspecified) ?
Result :: > 100 µM

Query :: Would you kindly share the measured TGI for C=CC(=O)c1ccc2c(c1)OCCOCCOCCOCCOCCO2 ?
Result :: 30.8 µM

Query :: Would you kindly share the measured TGI for CCCCCCCCCCCCCCCC(=O)NCC(COP(=O)([O-])OCC[N+](C)(C)C)OCC (stereo unspecified) ?
Result :: 27.8 µM

Query :: Would you kindly share the measured TGI for C=CC1=CSNN1 ?
Result :: > 100 µM

----------
tested on: A498 renal; experiment: NCI tumour cell line growth inhibition, 48 h; in the data active means GI50 below about 0.43 µM; inactive means the rest
Entry note: the call must match one of y = active, n = inactive

compound: CCOc1ccc(S(=O)(=O)/N=C2\C=C(SCC(=O)O)C(=O)c3ccccc32)cc1
label_value: n
//
compound: COc1ccc(/C=C/C=C(/C#N)C(N)=S)cc1
label_value: n
//
compound: COc1ccc(C(=S)N2CCN(c3cccc(Cl)c3)CC2)cc1
label_value: n
//
compound: O=C(NNc1nc2c(F)cccc2n2cccc12)c1cnccn1
label_value: n
//
compound: COc1cc(/C=C\[N+](=O)[O-])ccc1O
label_value: n

Query :: Which outcome did this test record for the compound COc1ccc(NC(=O)Nc2n[nH]c3ccccc23)cc1 ?
Result :: n

Query :: Which outcome did this test record for the compound COc1ccc2cc1Oc1ccc(cc1)C[C@H]1c3cc(c(OC)cc3CCN1C)Oc1c(OC)c(OC)cc3c1[C@H](C2)N(C)CC3 ?
Result :: n

Query :: Which outcome did this test record for the compound CCC(C)C1NC(=O)c2nc(oc2-c2ccccc2)-c2csc(n2)-c2csc(n2)-c2nc(oc2C)-c2coc(n2)CNC(=O)C(C(C)CC)NC1=O (stereo not given) ?
Result :: y

Query :: Which outcome did this test record for the compound Fc1cccc(COc2ccc(Nc3ncncc3C#Cc3ccccc3)cc2Cl)c1 ?
Result :: n

Query :: Which outcome did this test record for the compound CN(C)CC(=O)N1CCC(c2ccc(NC(=O)c3ncc(C#N)[nH]3)c(C3=CCCCC3)c2)CC1 ?
Result :: n

----------
Below: a set of entries, each annotated with reported TGI.
test system: U251 CNS; assay: NCI tumour cell line growth inhibition, 48 h
Quick note: give the figure in µM, leave out the unit.

Examples with answers:
smiles_text: O=C(c1ccc2ccccc2c1)c1c(C(F)(F)F)n([O-])c2cc(Cl)c(Cl)cc2[n+]1=O
test_value: 2.96
--
smiles_text: O=C(C#Cc1c[nH]c(=O)[nH]c1=O)c1ccccc1Cl
test_value: 35.1
--
smiles_text: O=C(/C=C/c1ccc(Cl)cc1)c1ccc(Cl)cc1Cl
test_value: 14.1
--
smiles_text: c1cc(-c2cnc(-c3ccc4c(c3)CCCO4)o2)ccn1
test_value: 78.5
--
smiles_text: N#CC(=C1SCS1)[N+](=O)[O-]
test_value: 10.8
--
smiles_text: CN(C)CC(=O)N1CCC(c2ccc(NC(=O)c3ncc(C#N)[nH]3)c(C3=CCCCC3)c2)CC1
test_value: 16.9
--
smiles_text: COc1cc2c(cc1OCCCCCOc1cc3c(cc1OC)C(=O)N1CCC[C@H]1C(=O)N3)N=C[C@@H]1CCCN1C2=O
test_value: 0.51
--
smiles_text: O=C(Nc1cccc(-n2ccc3c(NC(=O)c4ccccc4)nccc32)c1)c1cccc(C(F)(F)F)c1
test_value: 6.16

Query :: Would you kindly share the measured TGI for COc1ccc(-c2cc(-c3cc(Cl)ccc3Cl)nc3[nH]c(-c4cc(F)c(Cl)cc4Cl)cc(=O)c23)cc1 ?
Result :: 61.6

Query :: Would you kindly share the measured TGI for CCCCN(CC)c1nc(C)nc2c1c(C)c(C)n2-c1c(C)cc(C)cc1C ?
Result :: 23.9

Query :: Would you kindly share the measured TGI for COc1cc2c3c(cccc3c1)C(=O)N(CCN1CCCC1)C2=O ?
Result :: 9.59

Query :: Would you kindly share the measured TGI for COc1cc(C(=O)NC2c3ccccc3-c3ccccc32)c(N)cc1OCc1ccccc1 ?
Result :: 34.7

----------
system: NCI-H226 lung; assay: NCI tumour cell line growth inhibition, 48 h
Below: a set of entries, each annotated with reported TGI.

Examples with answers:
molecule: CC(C)CC(N)C(=O)OCN1C(=O)C2C3C=CC(C2C1=O)C1C2C(=O)N(COC(=O)C(N)CC(C)C)C(=O)C2C31 (stereo unspecified)
TGI: > 100 µM
//
molecule: CCCCN(CC)c1nc(C)nc2c1c(C)c(C)n2-c1c(C)cc(C)cc1C
TGI: 30.1 µM
//
molecule: C1COCCN1.C1COCCN1.N.N.[Cl-].[Pt+2]
TGI: > 100 µM
//
molecule: COC(=O)C(C#N)=C1c2ccccc2Oc2ccccc21
TGI: > 100 µM
//
molecule: O=C(CCN1CCN(c2cnc3ccccc3n2)CC1)c1csc2ccccc12
TGI: > 100 µM

Query :: Checklist item: TGI tested on NCI-H226 lung, entry CC1(C)CC2(C)CC1CC2O (stereo unspecified) , value?
Result :: > 100 µM

Query :: Checklist item: TGI tested on NCI-H226 lung, entry COc1ccc(NC(=O)Nc2n[nH]c3ccccc23)cc1 , value?
Result :: > 100 µM

Query :: Checklist item: TGI tested on NCI-H226 lung, entry Cc1sc2nc3n(c(=O)c2c1C)N=CN(c1ccccc1)C3 , value?
Result :: > 100 µM

----------
Below: a set of entries, each annotated with reported TGI.
test system: SF-539 CNS; assay: NCI tumour cell line growth inhibition, 48 h

Examples with answers:
compound: Cc1ccn2c3c(c(C(=O)O)c2c1)C(=O)c1ccccc1C3=O
test_value: 64.7 µM
--
compound: CC1(C)CC2(C)CC1CC2O (configuration not stated)
test_value: > 100 µM
--
compound: CCCCCCCCCCCCCC(=S)NCCCC[C@H](NC(=O)OCc1ccccc1)C(=O)Nc1ccccc1
test_value: > 100 µM
--
compound: Cc1cc(=O)cc2sc3c(C)cccc3nc1-2
test_value: 73.3 µM
--
compound: O=C(C#Cc1c[nH]c(=O)[nH]c1=O)c1ccccc1Cl
test_value: 30 µM
--
compound: C[C@@H]1CC[C@H]2C(COCC3=C(C(F)(F)F)O[C@@H]4O[C@@]5(C)CC[C@H]6[C@H](C)CC[C@@H]3[C@@]46OO5)=C(C(F)(F)F)O[C@@H]3O[C@@]4(C)CC[C@@H]1[C@]32OO4
test_value: > 100 µM
--
compound: CCOC(=O)CCC(NC(=O)c1ccc(OCc2nc3cc(C(F)(F)F)ccc3nc2-c2ccccc2)cc1)C(=O)OCC (configuration not stated)
test_value: > 100 µM
--
compound: O=C(Cc1nc2ccc(C(=O)c3ccccc3)cc2[nH]c1=O)C(=O)Nc1ccc(Br)cc1
test_value: > 100 µM
--
compound: O=[Se]([O-])c1ccccc1.O=[Se]([O-])c1ccccc1.[OH3+].[OH3+].[Pt+2]
test_value: 44.2 µM
--
compound: CCOc1ccc(S(=O)(=O)/N=C2\C=C(SCC(=O)O)C(=O)c3ccccc32)cc1
test_value: 5.39 µM

Could you now consider this next compound?
Query :: Would you kindly share the measured TGI for Cc1c(/C=N\NC(=S)N2CCN(C(=S)N/N=C\c3c(C)n(C)n(-c4ccccc4)c3=O)CC2)c(=O)n(-c2ccccc2)n1C ?
Result :: > 100 µM
